# assay.info: LNP size and polydispersity index (PDI) by dynamic light scattering
# Format: physicochemical
# settings: LNP with cirRNA (SEQ ID NO: 1); in nm (unit assumed)
# Experimental: Ionizable lipid, DSPC, Cholesterol and DMG-PEG 2000 were mixed at a molar ratio of 50:10:38.5:1.5 in absolute ethanol. Circular RNA and linear mRNA payloads were suspended in 25 mM Acetate Buffer (pH 4.5). […] The LNP size and polydispersity index (PDI), determined by dynamic light scattering (DLS), and zeta potential were measured by a Zetasizer machine (Malvern). […]
value.kind: Size

Solved cases (10 shown):
compound	Size
CCCCCCCCCCCOC(=O)CCCCCN(CCCCCCCC(=O)OC(CCCCCCCC)CCCCCCCC)CCOC(=O)NCCN1CCOCC1	58.97
CCCCC/C=C\C/C=C\CCCCCCCCN(CCCCCCCC(=O)OC(CCCCCCCC)CCCCCCCC)CCOC(=O)NCCCN(CC)CC	74.78
CCCCCCCCC(CCCCCCCC)OC(=O)CCCCCCCN(CCCCCCCCOC(=O)C(CCCCCC)CCCCCCCC)CCCOC(=O)NCc1ncc[nH]1 (centres unmarked)	70.01
CCCCC/C=C\CCOC(=O)CCCCCCCN(CCCCCCCC(=O)OCC/C=C\CCCCC)CCOC(=O)CCCN(C)C [Lipid C, reference compound]	118.3
CCCCCCCCCCCOC(=O)CCCCCN(CCCCCC(=O)OCCCCCCCCCCC)CCOC(=O)NCCN1CCCCC1	91.37
CCCCCCCCCCC(CCCCCCCC)COC(=O)CCCCCN(CCCCCC(=O)OCC(CCCCCCCC)CCCCCCCCCC)CCCOC(=O)NCCN1CCCCCC1 (centres unmarked)	92.65
CCCCC/C=C\C/C=C\CCCCCCCCN(CCCCCCCC/C=C\C/C=C\CCCCC)CCOC(=O)[C@@H](N)Cc1c[nH]cn1 [Lipid B, reference compound]	93.61
CCCCCCCCCCC(CCCCCCCC)COC(=O)CCCCCN(CCCCCC(=O)OCC(CCCCCCCC)CCCCCCCCCC)CCCOC(=O)NCCN1CCCC1 (centres unmarked)	93.14
CCCCC/C=C\C/C=C\CCCCCCCCN(CCCCCCCC/C=C\C/C=C\CCCCC)CCOC(=O)NCc1ccncc1	116.3
CCCCCCCCCCCOC(=O)CCCCCN(CCCCCCCC(=O)OC(CCCCCCCC)CCCCCCCC)CCOC(=O)NCc1ncc[nH]1	57.86

[a] CCCCC/C=C\C/C=C\CCCCCCCCN(CCCCCCCC(=O)OC(CCCCCCCC)CCCCCCCC)CCOC(=O)NCCN1CCN(C)CC1
[b] CCCCCCCCCCC(CCCCCCCC)COC(=O)CCCCCN(CCCCCC(=O)OCC(CCCCCCCC)CCCCCCCCCC)CCOC(=O)NCCN1CCCCC1 (centres unmarked)
Q: From the items above, decide which of a and b has the lower Size reading. Indicate which entry you chose by stating its label.
A: b
(b: 73.59, a: 150.9)

[a] CCCCCCOC(=O)CCCCCCCCCCN(CCCCCCCCCCC(=O)OCCCCCC)CCOC(=O)NCCCN(CC)CC
[b] CCCCCCCCCCC(CCCCCCCC)COC(=O)CCCCCN(CCCCCC(=O)OCC(CCCCCCCC)CCCCCCCCCC)CCCOC(=O)NCCN1CCN(C)CC1 (centres unmarked)
[c] CCCCCCCCCCCOC(=O)CCCCCN(CCCCCCCC(=O)OC(CCCCCCCC)CCCCCCCC)CCOC(=O)NCCN1CCCC1
Q: Order the 3 compounds from highest to lowest Size. Your reply should list the labels following the order given in the request.
A: a, b, c
